Here, each record is paired with measured viability data.
# testDescription: Her2 expression decrease, cell viability multiplex – SKBR3 breast tumor cells, AlphaScreen, ATP viability, primary screen (AID 461);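 also: percent of carrier control wells set as 100% viability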
# protocolConditions: SKBR3 Her2 protein level, 18-24 h, measured here: SKBR3 viability, ATP luminescence, at 10 µM
Number only, in %; omit the unit.

Example entries begin here.
molecule: Cn1c(=O)oc2cc(S(=O)(=O)N3CCCC(C(=O)NCC4COc5ccccc5O4)C3)ccc21 (stereo not given)
viability, %: 77

molecule: Cc1ccc(NC(=O)CN(c2ccc3c(c2)OCO3)S(=O)(=O)c2c(C)n[nH]c2C)cc1
viability, %: 92

molecule: CCCC(=O)NCCc1cc2c(C)ccc(C)c2[nH]c1=O
viability, %: 106

molecule: N#CC(C(=O)Nc1ccccc1)=C1CCCCC1
viability, %: 99

molecule: O=C(COC(=O)C1CC2C=CC1C2)Nc1ccc2c(c1)OC(F)(F)O2 (stereo not given)
viability, %: 119

molecule: CCCCn1c(CN2CCN(c3ccccc3)CC2)nc2c1c(=O)n(C)c(=O)n2C
viability, %: 89

Req: For the molecule Cc1onc(-c2ccccc2Cl)c1C(=O)N1CCc2ccccc21 , give its reported viability.
Resp: 87.5

Req: For the molecule COCc1nnc(NC(=O)c2ccc(S(=O)(=O)N(C)c3ccccc3)cc2)o1 , give its reported viability.
Resp: 85

Req: For the molecule Cc1noc(/C=C/N(C)C)c1S(=O)(=O)N1CCCC(C(=O)N2CCCCC2)C1 (stereo not given) , give its reported viability.
Resp: 84

Req: For the molecule CCOC(=O)c1c(C)n(C)c2c(C)cc(O)c(OC(C)=O)c12 , give its reported viability.
Resp: 93

====

Here, each record is paired with measured viability data.
# testDescription: MRP1 drug-resistance reversers in H69AR cells – cell-based, doxorubicin co-treatment, pilot screen (AID 601)
# protocolConditions: H69AR cells, CellTiter-Glo, 72 h; compound alone cytotoxicity; at 10 µM
Number only, in %; omit the unit.

Req: For the compound COc1cccc2c(=O)c3c(cnn3C)n(C)c12 , give its reported viability.
Resp: 81.9

Req: For the compound CCOc1ccc(-c2nnc(SCC(=O)N3CCN(c4ccccc4)CC3)o2)cc1 , give its reported viability.
Resp: 86.5

Req: For the compound CCOC(=O)CN(C(=O)c1ccccc1)c1ccccc1C , give its reported viability.
Resp: 109

Req: For the compound CC1CCN(C(=O)CSc2nnc(Cc3cc(=O)[nH]c(=O)[nH]3)n2-c2ccc(Cl)cc2)CC1 , give its reported viability.
Resp: 101

Req: For the compound CCCCn1c(CN2CCN(c3ccc(F)cc3)CC2)nc2c1c(=O)n(C)c(=O)n2C , give its reported viability.
Resp: 95.5

Req: For the compound CCn1c(=O)cc(OCC(=O)Nc2nc(C)cs2)c2ccccc21 , give its reported viability.
Resp: 94.8

====

# testDescription: MRP1 drug-resistance reversers in H69AR cells – cell-based, doxorubicin co-treatment, pilot screen (AID 601)
# protocolConditions: H69AR cells, CellTiter-Glo, 72 h; compound alone cytotoxicity; at 10 µM
Labelling: viability reported below 90% becomes Y; at or above becomes N.

A selection of reference data follows.
molecule: COc1ccc(S(=O)(=O)N2CCN(c3ccc(C)cc3C)CC2)cc1OC
classification: N
//
molecule: Cc1cn2c(-c3ccc(Cl)cc3)nnc2s1
classification: N
//
molecule: COc1ccc(C2c3c(oc4ccccc4c3=O)C(=O)N2c2ccc(C)cn2)cc1OC (centres undefined)
classification: N
//
molecule: Cn1ccnc1C(O)c1ccco1 (centres undefined)
classification: N
//
molecule: COc1cc(NC(=O)CN(c2cc(C)cc(C)c2)S(=O)(=O)c2c(C)noc2C)cc(OC)c1
classification: Y
//
molecule: CCOC(=O)CSC1=C(C#N)C(c2ccc(C)o2)CC(=O)N1 (centres undefined)
classification: Y
//
molecule: COCCn1c(SCC(=O)Nc2ccc3c(c2)OCCO3)nc2c(c1=O)SC(C)C2 (centres undefined)
classification: Y
//
molecule: CCOc1ccc(Cn2nnc(C(=O)Nc3cc(C)cc(C)c3)c2N)cc1
classification: Y

Please examine the following record next.
Req: Determine if CCCCCOc1ccc(C2NC(=O)NC2=O)cc1 (centres undefined) shows viability strictly lower than 90%.
Resp: N
